Here's a roundup of pIC50 values tested on HPK1 (Homo sapiens (Human), UniProt Q92918), taken from various published works.
Sequence (Q92918 whole entry): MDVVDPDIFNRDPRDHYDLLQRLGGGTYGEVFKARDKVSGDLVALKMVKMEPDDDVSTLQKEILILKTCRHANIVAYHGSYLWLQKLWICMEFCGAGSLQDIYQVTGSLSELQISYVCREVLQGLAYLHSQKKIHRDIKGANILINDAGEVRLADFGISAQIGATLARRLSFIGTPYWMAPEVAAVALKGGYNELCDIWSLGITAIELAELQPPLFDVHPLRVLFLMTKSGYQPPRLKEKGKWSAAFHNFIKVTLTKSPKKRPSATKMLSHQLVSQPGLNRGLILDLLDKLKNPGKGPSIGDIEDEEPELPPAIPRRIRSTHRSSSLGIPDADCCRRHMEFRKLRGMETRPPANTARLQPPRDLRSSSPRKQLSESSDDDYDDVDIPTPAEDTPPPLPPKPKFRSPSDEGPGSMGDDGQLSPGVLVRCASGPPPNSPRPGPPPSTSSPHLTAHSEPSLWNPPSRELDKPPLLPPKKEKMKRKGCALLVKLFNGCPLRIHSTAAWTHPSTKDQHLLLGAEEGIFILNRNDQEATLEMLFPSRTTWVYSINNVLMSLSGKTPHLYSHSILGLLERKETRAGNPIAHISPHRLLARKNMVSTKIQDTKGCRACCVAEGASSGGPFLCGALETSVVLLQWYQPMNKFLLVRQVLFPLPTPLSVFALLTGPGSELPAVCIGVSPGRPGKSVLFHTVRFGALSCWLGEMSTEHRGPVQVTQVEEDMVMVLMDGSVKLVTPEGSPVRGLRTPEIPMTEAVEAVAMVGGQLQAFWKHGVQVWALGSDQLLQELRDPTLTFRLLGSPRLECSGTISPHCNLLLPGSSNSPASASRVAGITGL
pIC50: −log10 of the molar value.

Before answering, review these 5 worked examples.
Cc1cc(-c2cnc3[nH]cc(-c4ccc(C(=O)N(C)C)cc4)c3c2)cc2c1CN(CCC(=O)N1CCN(c3ccc(N4CCC(=O)NC4=O)cc3)CC1)CC2 :: 7.51
CCc1c[nH]c2ncc(-c3cccc(N4CCN(C(=O)OC)CC4=O)c3)c(Cl)c12 :: ≥ 8.00
CCc1c[nH]c2ncc(-c3cccc(N4CCN(CC(=O)N5CCN(c6cc7c(cc6F)C(=O)N(C6CCC(=O)NC6=O)C7=O)CC5)CC4=O)c3)c(Cl)c12 (stereo not shown) :: 7.00 to 8.00
CN(C)Cc1cc(Nc2ncc(-c3cnc4cc(F)ccn34)c3c2C(=O)NC3)ccc1C1CCOCC1 :: ≥ 7.00
Cn1ccc2c(-c3cnc(Nc4ccc(N5CCC[C@@H](C(C)(C)O)C5)cc4)c4c3CNC4=O)ccnc21 :: ≥ 7.00

Please examine the following record next.
Query: pIC50; subject: CCN1CCC(n2cc(-c3c[nH]c4ncc(-c5cnc(N6CCN(C7CCC(NC(=O)c8ccc(Cl)c(N9CCC(=O)NC9=O)c8)CC7)CC6)c(C)c5)nc34)cn2)CC1 (stereo not shown)
8.74

----------
pIC50: −log10 of the molar value.
Here's a roundup of pIC50 values tested on UniProt:Q92918, taken from various published works.

Before answering, review these 2 worked examples.
COc1cc(-c2cnc3[nH]cc(C)c3c2)cc([C@@H]2COCCN2)c1C1CCOCC1 :: 8.30 to 11.00
O=C1CNCCN1c1cccc(-c2cnc3[nH]cc(CC(F)F)c3c2Cl)n1 :: 7.00 to 8.00

Enter reported pIC50 observed with UniProt:Q92918 for O=C1CCN(c2cnc3cc(C4CCN(CCCN5CCN(c6cccc(-c7cnc8[nH]cc(C9CC9)c8c7Cl)c6)C(=O)C5)CC4)ccn23)C(=O)N1
≥ 8.00

Enter reported pIC50 observed with UniProt:Q92918 for Nc1ncc(-c2cnn(C3CCOCC3)c2)cc1OCc1cc(C#CC2(O)CC2)ccc1F
> 7.00

----------
Here's a roundup of pIC50 values tested on UniProtKB Q92918, taken from various published works.
pIC50: −log10 of the molar value.

Before answering, review these 2 worked examples.
O[C@H]1COc2cc(ccc2N2CCN3CCOC[C@H]3C2)-c2n[nH]c3cnc(cc23)-c2c(F)cccc2OC1 :: 7.30 to 8.30
CN(C)C[C@H]1CN(c2ccc(Nc3ncc(-c4ccnc5c4ccn5C)c4c3C(=O)NC4)cc2)CCO1 (single isomer, unassigned) :: ≥ 7.00

Please examine the following record next.
Query: pIC50; subject: CCc1c[nH]c2ncc(-c3cccc(N4CCN(C(=O)[C@@H](N)Cc5ccccc5)CC4=O)c3)c(Cl)c12
≥ 8.00

----------
Here's a roundup of pIC50 values tested on HPK1 (Homo sapiens (Human), UniProt Q92918), taken from various published works.
pIC50: −log10 of the molar value.

Before answering, review these 5 worked examples.
FC(F)(F)c1c[nH]c2ncc(-c3ccc(C4CCOCC4)c(CN4CCCC4)n3)cc12 :: 8.00 to 8.30
CCc1c[nH]c2ncc(-c3cccc(N4CCN(C(=O)CCCOc5cccc6c5CN(C5CCC(=O)NC5=O)C6=O)CC4=O)c3)c(Cl)c12 (stereo not shown) :: 7.00 to 8.00
CC(C)(O)C1CN(c2ccc(Nc3ncc(-c4cnc5cc(F)ccn45)c4c3C(=O)NC4)cc2)CCO1 (stereo not shown) :: ≥ 7.00
COC(=O)c1c[nH]c2ncc(-c3ccc(C4CCOCC4)c(C4COCCN4)n3)cc12 (stereo not shown) :: 8.30 to 11.00
O=C1CCC(N2Cc3cc(N4CCC(CCN5CCN(c6cccc(-c7cnc8[nH]cc(C9CC9)c8c7Cl)c6)C(=O)C5)CC4)c(F)cc3C2=O)C(=O)N1 (stereo not shown) :: 7.00 to 8.00

Query: pIC50; subject: CN1CCC(n2cc(-c3cnc(N)c(OCc4cc(C#CC(C)(C)O)ccc4F)c3)cn2)CC1
> 7.00

Query: pIC50; subject: Cc1cc(-c2cnc(N)c(Oc3cnn(C4CCN(C)CC4)c3)n2)cc(C)c1C(=O)NCCN(C)C
7.33
